system: BT-549 breast; test: NCI tumour cell line growth inhibition, 48 h
Below is a list of entries, each paired with its recorded TGI value.
Measured Property: TGI

Molecule	Measured Property	Result
C1CC[N-]CC1.C1CC[N-]CC1.C1CC[N-]CC1.C1CC[N-]CC1.[Cl][Rh][Cl]	TGI	19.3 µM
CCCCCCCCCCC[N+]1(Cc2ccccc2)CC2CCN(Cc3ccccc3)CC2C1 (stereo unspecified)	TGI	1.4 µM
COCCN(C(=O)c1ccccc1)C1CCC(=O)c2[nH]c3ccccc3c21 (stereo unspecified)	TGI	8.22 µM
COC(=O)NC(Nc1ccc(C)cc1)(C(F)(F)F)C(F)(F)F	TGI	> 100 µM
C=C1CC(Cn2cc(Br)c(=O)[nH]c2=O)(c2ccc(Br)cc2)OC1=O (stereo unspecified)	TGI	8.25 µM
CSc1nc2c(c(=O)[nH]1)N=C1c3ccccc3C(=O)C1C(c1ccc(F)cc1)N2 (stereo unspecified)	TGI	41.2 µM
CC(=O)c1cc(S(=O)(=O)c2ccc(O)c(C(C)=O)c2)ccc1O	TGI	> 100 µM
CC12CCC3C(CC=C4CC(O)CCC43C)C1C/C(=C\N1CCCC1)C2=O (stereo unspecified)	TGI	> 100 µM
CN(C)CCCn1c2c(c3cnccc3c1=O)C(=O)c1ccccc1-2	TGI	8.43 µM
CCOC(=O)c1nc2ccccc2nc1Nc1ccc(F)cc1	TGI	73.2 µM
COC(=O)c1c(C)cccc1C1CN=NC12Cc1cccc(C)c1C2=O (stereo unspecified)	TGI	88.6 µM
O=C(c1ccccc1)c1ccc2nc(-c3c(Cl)c(Cl)c(Cl)c(Cl)c3C(=O)Nc3ccco3)[nH]c2c1	TGI	74 µM
O=C1/C(=C/c2cccs2)N=C(c2ccccc2)N1c1nc2ccccc2s1	TGI	> 100 µM
COP(=O)(OC)C(NC(c1ccccc1)c1ccccc1)c1ccc2c(c1)OCO2 (stereo unspecified)	TGI	38.8 µM
O=C(/C=C/c1ccc(OCC(=O)N2CCN(c3ccccc3)CC2)cc1)c1ccc(Cl)cc1	TGI	> 85.6 µM
c1ccc2c(c1)ccc1nc(-c3ccc4c(c3)OCO4)c3c(c12)CCC3	TGI	> 100 µM
Nc1cc2ncnc(Nc3cccc(Br)c3)c2cn1	TGI	> 100 µM
O=C(O)C(=Cc1ccnc2ccccc12)C(=O)O	TGI	> 100 µM
CCOC(=O)c1c(SCCN2CCCCC2)n(-c2ccccc2)c(=S)n(-c2ccccc2)c1=O	TGI	31.1 µM
COc1c(O)c2c(c3cc(C(=O)N4CCc5c4c(O)c(OC)c4[nH]c(C(=O)N6CC7CC78C6=CC(=O)c6[nH]cc(C)c68)cc54)[nH]c13)CCN2C(N)=O (stereo unspecified)	TGI	5.01 µM
N#CC(=S)Nc1cccc(Cl)c1	TGI	> 100 µM

====

system: SK-MEL-5 melanoma; test: NCI tumour cell line growth inhibition, 48 h
Measured GI50 of individual entries
Measured Property: GI50

                                   compound    result
0  CCCCn1c2cc(OCc3cn(-c4ccc(Cl)cc4)nn3)ccc2c2ccnc(C)c21   5.35 µM
1  NC(=O)c1cnc(N[C@@H]2CCCC[C@@H]2N)nc1Nc1cccc(-n2nccn2)c1   5.37 µM
2  CC(CN(CP(=O)([O-])[O-])CP(=O)([O-])[O-])N(CP(=O)([O-])[O-])CP(=O)([O-])[O-].N.N.[Pt+2] (stereo not drawn)  > 100 µM
3  Cc1ccc(C(=O)Nc2ccc(CN3CCN(C)CC3)c(C(F)(F)F)c2)cc1C#Cc1cnc(N)cc1C#N  0.741 µM
4  C[C@]12CCC3[C@@H](C[C@@H]4SC(Nc5ccccc5)=N[C@@]45CC(=O)CC[C@]35C)[C@@H]1CCC2=O (stereo partly drawn)   10.2 µM
5  C1CC[N-]CC1.C1CC[N-]CC1.C1CC[N-]CC1.C1CC[N-]CC1.[Cl][Rh][Cl]    4.2 µM
6   CC(C)(C)N1CCC1C(N)=O (stereo not drawn)  > 100 µM
7  CC12CCC3C(CC=C4CC(O)CCC43C)C1C/C(=C\N1CCCC1)C2=O (stereo not drawn)   64.5 µM
